All values here come from patent US20260042850A1.

- TARGET: T1, cynomolgus monkey C-MET His tag, monomeric (cynomolgus monkey, UniProt A0M8R7 25-932 (Papio anubis entry))
- T1 construct: also called monomeric cyno C-MET; cyCMET
- T1 sequence (A0M8R7 25-932 S170N/I621T): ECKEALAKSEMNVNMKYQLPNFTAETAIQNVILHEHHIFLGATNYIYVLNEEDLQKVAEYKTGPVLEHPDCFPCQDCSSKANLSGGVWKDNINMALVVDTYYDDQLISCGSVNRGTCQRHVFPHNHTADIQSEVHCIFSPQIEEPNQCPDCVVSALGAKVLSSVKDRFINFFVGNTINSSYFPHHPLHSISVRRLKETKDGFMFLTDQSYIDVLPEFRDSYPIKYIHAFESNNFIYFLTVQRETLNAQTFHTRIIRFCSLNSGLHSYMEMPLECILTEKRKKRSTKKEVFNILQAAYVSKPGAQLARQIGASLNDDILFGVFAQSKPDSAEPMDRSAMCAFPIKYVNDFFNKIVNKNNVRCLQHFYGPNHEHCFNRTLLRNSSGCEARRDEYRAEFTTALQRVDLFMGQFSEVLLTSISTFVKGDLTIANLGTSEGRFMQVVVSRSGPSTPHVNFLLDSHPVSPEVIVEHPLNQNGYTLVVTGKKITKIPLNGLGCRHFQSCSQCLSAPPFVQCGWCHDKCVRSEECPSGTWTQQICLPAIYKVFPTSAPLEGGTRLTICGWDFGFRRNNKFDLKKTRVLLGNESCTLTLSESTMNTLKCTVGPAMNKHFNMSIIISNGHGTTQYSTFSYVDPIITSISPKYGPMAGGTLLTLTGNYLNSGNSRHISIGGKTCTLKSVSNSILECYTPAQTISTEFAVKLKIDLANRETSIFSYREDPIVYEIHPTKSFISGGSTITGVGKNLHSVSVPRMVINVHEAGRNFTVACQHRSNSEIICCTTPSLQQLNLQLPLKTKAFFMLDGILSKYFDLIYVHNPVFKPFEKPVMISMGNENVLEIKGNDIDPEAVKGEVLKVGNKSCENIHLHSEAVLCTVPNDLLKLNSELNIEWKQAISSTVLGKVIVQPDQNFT
- PROTOCOL_DESCRIPTION: SPR Biacore, IgG captured, monomeric C-MET-His analyte
Response field label takes yes when Kd is strictly below 0.2 nM and no in all other cases.

BINDER: 08B12 (antibody, IgG4, V domains shown) VH: QVQLVQSGAEVKKPGASVKVSCKASGYIFTAYSMHWVRQAPGQGLEWMGWIKPNNGSTNYAQKFQGRVTMTRDTSTSTVYMELSSLRSEDTAVYYCARTEITTEFDYWGQGTLVTVSS VL: EIVLTQSPGTLSLSPGERATLSCRASQSVDSYANSYLHWYQQKPGQAPRLLIYRGSTRETGIPDRFSGSGSGTDFTLTISRLEPEDFAVYYCQQSKSDPLTFGGGTKVEIK
LABEL_VALUE: no

BINDER: MH1 (antibody, IgG4, V domains shown) VH: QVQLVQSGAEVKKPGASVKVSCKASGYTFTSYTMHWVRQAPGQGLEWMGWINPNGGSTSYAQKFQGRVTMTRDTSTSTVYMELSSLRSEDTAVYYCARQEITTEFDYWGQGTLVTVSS VL: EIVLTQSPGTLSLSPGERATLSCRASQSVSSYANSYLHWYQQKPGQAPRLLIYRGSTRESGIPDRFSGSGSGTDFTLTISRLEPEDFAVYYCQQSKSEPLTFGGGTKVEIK
LABEL_VALUE: yes

BINDER: MH12 (antibody, IgG4, V domains shown) VH: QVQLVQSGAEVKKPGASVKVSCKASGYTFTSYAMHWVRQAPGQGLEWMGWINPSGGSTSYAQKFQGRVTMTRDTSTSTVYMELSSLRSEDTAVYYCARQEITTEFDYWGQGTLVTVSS VL: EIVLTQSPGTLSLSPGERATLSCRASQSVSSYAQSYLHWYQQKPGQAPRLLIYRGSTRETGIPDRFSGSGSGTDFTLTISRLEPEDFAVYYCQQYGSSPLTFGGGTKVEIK
LABEL_VALUE: no

BINDER: 08G07 (antibody, human IgG4, V domains shown) VH: QVQLVQSGAEVKKPGASVKVSCKASGYTFTSYTMHWVRQAPGQGLEWMGWINPSGGLANYAQKFQGRVTMTRDTSTSTVYMELSSLRSEDTAVYYCARSEITTDFDYWGQGTLVTVSS VL: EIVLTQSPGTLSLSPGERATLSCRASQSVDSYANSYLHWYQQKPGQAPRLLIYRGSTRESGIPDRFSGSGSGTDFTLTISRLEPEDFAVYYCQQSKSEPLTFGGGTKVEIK
LABEL_VALUE: no

BINDER: MH7-3 (antibody, human IgG4, V domains shown) VH: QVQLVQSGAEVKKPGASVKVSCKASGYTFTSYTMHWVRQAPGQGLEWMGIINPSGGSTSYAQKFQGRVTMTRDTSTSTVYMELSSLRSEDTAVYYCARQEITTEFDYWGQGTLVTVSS VL: EIVLTQSPGTLSLSPGERATLSCRASQSVSSYAQSYLHWYQQKPGQAPRLLIYRGSTRETGIPDRFSGSGSGTDFTLTISRLEPEDFAVYYCQQSKESPLTFGGGTKVEIK
LABEL_VALUE: no

BINDER: 04F09 (antibody, IgG4, V domains shown) VH: QVQLVQSGAEVKKPGASVKVSCKASGYIFTSYSMHWVRQAPGQGLEWMGWINPSNGLANYAQKFQGRVTMTRDTSTSTVYMELSSLRSEDTAVYYCARQEITTEFDIWGQGTLVTVSS VL: EIVLTQSPGTLSLSPGERATLSCRASQSVESYAQSYLHWYQQKPGQAPRLLIYRGSTRESGIPDRFSGSGSGTDFTLTISRLEPEDFAVYYCQQSKSDPLTFGGGTKVEIK
LABEL_VALUE: yes

BINDER: MH9 (antibody, IgG4, V domains shown) VH: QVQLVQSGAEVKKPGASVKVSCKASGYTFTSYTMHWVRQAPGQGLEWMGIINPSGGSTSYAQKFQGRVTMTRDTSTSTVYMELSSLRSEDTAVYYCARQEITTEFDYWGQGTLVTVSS VL: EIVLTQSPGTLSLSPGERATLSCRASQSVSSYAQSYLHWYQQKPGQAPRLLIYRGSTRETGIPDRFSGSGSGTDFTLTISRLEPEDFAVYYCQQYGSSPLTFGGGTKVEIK
LABEL_VALUE: no

BINDER: MH3 (antibody, IgG4, V domains shown, also called MH03) VH: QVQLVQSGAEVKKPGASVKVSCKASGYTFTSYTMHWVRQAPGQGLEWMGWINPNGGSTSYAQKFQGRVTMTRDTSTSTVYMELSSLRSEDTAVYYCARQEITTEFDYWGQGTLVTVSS VL: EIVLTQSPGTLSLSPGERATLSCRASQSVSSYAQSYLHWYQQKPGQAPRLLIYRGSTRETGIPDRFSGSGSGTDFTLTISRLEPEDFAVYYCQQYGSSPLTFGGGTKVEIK
LABEL_VALUE: no
